Each entry below carries its recorded inhibition.
- Target Of Assay: G-protein coupled receptor 55 (Homo sapiens)
- Measurement Protocol: GPR55 antagonists blocking LPI-driven arrestin recruitment, primary screen, imaging, U2OS, beta-arrestin-GFP, LPI agonist (AID 2013);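 further: U2OS cells stably carrying GPR55 and arrestin-GFP stimulated by 5 µM LPI near EC80; imaged beta-arrestin-GFP aggregate spots per cell after agonist stimulation; plate controls were LPI-stimulated DMSO wells for no effect and DMSO wells without LPI for full effect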
- Test Parameters: U2OS GPR55 beta-arrestin-GFP translocation imaging, LPI antagonism; at 10 µM; active compounds read high
The campaign covered roughly 290,000 compounds. About 370 (0.13%) were called active. For the sample, actives were picked, then their nearest neighbours and some compounds at random. Measured potencies and affinities stand elsewhere.
Enter your answer as a number in %; do not include the unit.

See these solved cases before continuing.
> print(dat)
                                   compound  measured.quantity  unit.annotation  meas.value
1  COC(=O)[C@H](Cc1ccccc1)NC(=O)N1CCCCC1C (some centres undefined)         inhibition                %        11.9
2  CCOc1ccccc1CNC(=O)CCCn1ncn2c(cc3occc32)c1=O         inhibition                %        -7.1

In one line, give reported inhibition of the entry C=CCn1c(SCC(=O)NC(=O)c2cccn2C)nc2ccccc2c1=O .
4.4

In one line, give reported inhibition of the entry Cc1cc(/C=C2\SC(=O)N(C)C2=O)c(C)n1-c1ccc(S(N)(=O)=O)cc1 .
5

###

- Target Of Assay: G-protein coupled receptor 55 (Homo sapiens)
- Measurement Protocol: GPR55 antagonists blocking LPI-driven arrestin recruitment, primary screen, imaging, U2OS, beta-arrestin-GFP, LPI agonist (AID 2013);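 further: U2OS cells stably carrying GPR55 and arrestin-GFP stimulated by 5 µM LPI near EC80; imaged beta-arrestin-GFP aggregate spots per cell after agonist stimulation; plate controls were LPI-stimulated DMSO wells for no effect and DMSO wells without LPI for full effect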
- Test Parameters: U2OS GPR55 beta-arrestin-GFP translocation imaging, LPI antagonism; at 10 µM; active compounds read high
In all, about 290,000 compounds went through this assay and about 370 (0.13%) were called active. This is one part of a sample in which actives are shown more often than they occur. Measured potencies and affinities stand elsewhere.
Measured Quantity: inhibition (%)
Enter your answer as a number in %; do not include the unit.

See these solved cases before continuing.
> print(dat)
                               smiles.input  unit.annotation  meas.value
1     COc1ccccc1OCC(=O)NCc1nc(-c2ccccc2)no1                %         4.4
2  CC(C)(C)OC(=O)N1CCC(NC(=O)c2[nH]cnc2C(=O)N[C@@H](Cc2ccccc2)C(=O)OCc2ccccc2)CC1                %        41.8

Under G-protein coupled receptor 55 (Homo sapiens), report inhibition for COC(=O)c1cc2c(C)c(C)c3ccccn3c-2c1C(=O)OC
12.8

Under G-protein coupled receptor 55 (Homo sapiens), report inhibition for O=C(CCCn1c(=S)[nH]c2cc3c(cc2c1=O)OCO3)N1CCN(c2ccccn2)CC1
10.5

Under G-protein coupled receptor 55 (Homo sapiens), report inhibition for CC(C)(C)c1ccc(S(=O)(=O)Nc2ccc(Cc3ccncc3)cc2)cc1
80.2

Under G-protein coupled receptor 55 (Homo sapiens), report inhibition for CCOC(=O)c1sc(NC(=O)CSc2ncn(-c3ccccc3)n2)nc1C
14.4
